- assayExplanation: Oral bioavailability in dog (dose 5 mg/kg)
- Assay type: ADME, organism-based, Canis lupus familiaris
- experimentalConditions: in vivo
This listing pairs compounds with measured bioavailability.
Please state the figure in %; there is no need to write the unit.

O=C(N[C@H]1c2ccccc2OC[C@H]1O)[C@H](Cc1ccccc1)C[C@H](O)CN1CCN(Cc2ccc(-c3cccnc3)o2)C[C@H]1C(=O)NCC(F)(F)F    2

Attention now shifts to the item below.
Query string: For `O=C(N[C@H]1c2ccccc2OC[C@H]1O)[C@H](Cc1ccccc1)C[C@H](O)CN1CCN(Cc2ccc(-c3ccncc3)o2)C[C@H]1C(=O)NCC(F)(F)F` , write its bioavailability.
Result string: 55

Entry source: ChEMBL document CHEMBL1136138
